Reference for the values: patent US3931314A

Tested on: central nervous system
Measurement description: climbing test on albino mice, sedative action on the central nervous system
Format: in vivo
Condition parameters: Mus musculus, po, dose 8 mg/kg p.o., read-out: Sedative action % (percentage of animals which no longer take up the climbing work)
Method: The pharmacological investigation of the sedative action on the central nervous system was carried out using the climbing tests on albino mice described by P. K. KNEIP: Arch. int. pharmacodyn 126, 238 (1960) and R. DOMENJOZ and W. THEOBALD: Arch. int. pharmacodyn 120, 450 (1959). In the table which follows, the results of the pharmacological investigations carried out are summarised. […]
Measurement label: responders at 8 mg/kg (%)
Answer format: numeric, % implied, no suffix.

Use the examples below as a reference point.
> print(dat)
                                   molecule             test.system      measurement.label  observed
1  CCOC(=O)CCNCC(=O)N(C)c1ccc(SC)cc1C(=O)c1ccccc1  central nervous system  responders at 8 mg/kg        60
2  CCCCN(CCC#N)CC(=O)N(C)c1ccc([N+](=O)[O-])cc1C(=O)c1ccccc1  central nervous system  responders at 8 mg/kg        50

Query: Can you look up the measured responders at 8 mg/kg of CN(CCCC#N)CC(=O)Nc1ccc(Cl)cc1C(=O)c1ccccc1 for me?
Response: 60

Query: Can you look up the measured responders at 8 mg/kg of COc1ccc(N(C)C(=O)CNC(C)CC#N)c(C(=O)c2ccccc2)c1 (stereo not shown) for me?
Response: 60

Query: Can you look up the measured responders at 8 mg/kg of CCOC(=O)CCNCC(=O)N(C)c1ccc(C(F)(F)F)cc1C(=O)c1ccccc1 for me?
Response: 60

====

Quick list: responders at 8 mg/kg per entry.
Tested on: central nervous system
Measurement description: climbing test on albino mice, sedative action on the central nervous system
Format: in vivo
Condition parameters: Mus musculus, po, dose 8 mg/kg p.o., read-out: Sedative action % (percentage of animals which no longer take up the climbing work)
Answer format: numeric, % implied, no suffix.

> print(dat)
                                   compound             test.system      measurement.label  unit.spec  observed
1  CN(CCC#N)CC(=O)N(C)c1ccc(Cl)cc1C(=O)c1ccccc1  central nervous system  responders at 8 mg/kg          %        50
2  CC(C#N)CNCC(=O)Nc1ccc(Cl)cc1C(=O)c1ccccc1 (centres unmarked)  central nervous system  responders at 8 mg/kg          %        50
3  CCOC(=O)CCCNCC(=O)Nc1ccc([N+](=O)[O-])cc1C(=O)c1ccccc1  central nervous system  responders at 8 mg/kg          %        50

Query: Hello, I am looking for reported responders at 8 mg/kg with central nervous system for CCOC(=O)CCNCC(=O)Nc1ccc(Cl)cc1C(=O)c1ccccc1Cl . Could you help?
Response: 70

Query: Hello, I am looking for reported responders at 8 mg/kg with central nervous system for CCOC(=O)CCCNCC(=O)N(C)c1ccc([N+](=O)[O-])cc1C(=O)c1ccccc1 . Could you help?
Response: 60
